Origin of measurements: patent US20060135432A1

Target: Primate GnRH-2 receptor (Primate (from a CV-1 cell genome))
Experiment: cell-based or functional assay
[ ]: non-standard residue; d: D form. pGlu = O=C1CC[C@@H](C(=O)O)N1
Tick rule met if Emax (fold-induction), luciferase activation is 9 fold-induction or greater. Tick rule not met if Emax (fold-induction), luciferase activation is less than 9 fold-induction.

{"BINDER": "[pGlu]HWSY[dA]WLPG-NH2 (SMILES CC(C)C[C@H](NC(=O)[C@H](Cc1c[nH]c2ccccc12)NC(=O)[C@@H](C)NC(=O)[C@H](Cc1ccc(O)cc1)NC(=O)[C@H](CO)NC(=O)[C@H](Cc1c[nH]c2ccccc12)NC(=O)[C@H](Cc1c[nH]cn1)NC(=O)[C@@H]1CCC(=O)N1)C(=O)N1CCC[C@H]1C(=O)NCC(N)=O) [[Tyr^5, D-Ala^6, Leu^8]GnRH-2]", "QUALITATIVE LABEL": "rule not met"}
{"BINDER": "[pGlu]HWSH[dA]WYPG-NH2 (SMILES C[C@@H](NC(=O)[C@H](Cc1c[nH]cn1)NC(=O)[C@H](CO)NC(=O)[C@H](Cc1c[nH]c2ccccc12)NC(=O)[C@H](Cc1c[nH]cn1)NC(=O)[C@@H]1CCC(=O)N1)C(=O)N[C@@H](Cc1c[nH]c2ccccc12)C(=O)N[C@@H](Cc1ccc(O)cc1)C(=O)N1CCC[C@H]1C(=O)NCC(N)=O, Chemically synthesised by AnyGen Co) [[D-Ala^6]GnRH-2]", "QUALITATIVE LABEL": "rule met"}
{"BINDER": "[pGlu]HWSH[dW]WYPG-NH2 (SMILES NC(=O)CNC(=O)[C@@H]1CCCN1C(=O)[C@H](Cc1ccc(O)cc1)NC(=O)[C@H](Cc1c[nH]c2ccccc12)NC(=O)[C@@H](Cc1c[nH]c2ccccc12)NC(=O)[C@H](Cc1c[nH]cn1)NC(=O)[C@H](CO)NC(=O)[C@H](Cc1c[nH]c2ccccc12)NC(=O)[C@H](Cc1c[nH]cn1)NC(=O)[C@@H]1CCC(=O)N1) [[D-Trp^6]GnRH-2]", "QUALITATIVE LABEL": "rule met"}
{"BINDER": "[pGlu]HWSH[dK]WYPG-NH2 (SMILES NCCCC[C@@H](NC(=O)[C@H](Cc1c[nH]cn1)NC(=O)[C@H](CO)NC(=O)[C@H](Cc1c[nH]c2ccccc12)NC(=O)[C@H](Cc1c[nH]cn1)NC(=O)[C@@H]1CCC(=O)N1)C(=O)N[C@@H](Cc1c[nH]c2ccccc12)C(=O)N[C@@H](Cc1ccc(O)cc1)C(=O)N1CCC[C@H]1C(=O)NCC(N)=O) [[D-Lys^6]GnRH-2]", "QUALITATIVE LABEL": "rule met"}
{"BINDER": "[pGlu]HWSH[dA]YWPG-NH2 (SMILES C[C@@H](NC(=O)[C@H](Cc1c[nH]cn1)NC(=O)[C@H](CO)NC(=O)[C@H](Cc1c[nH]c2ccccc12)NC(=O)[C@H](Cc1c[nH]cn1)NC(=O)[C@@H]1CCC(=O)N1)C(=O)N[C@@H](Cc1ccc(O)cc1)C(=O)N[C@@H](Cc1c[nH]c2ccccc12)C(=O)N1CCC[C@H]1C(=O)NCC(N)=O) [[D-Ala^6, Tyr^7, Trp^8]GnRH-2]", "QUALITATIVE LABEL": "rule met"}
{"BINDER": "[pGlu]HWSL[dA]WYPG-NH2 (SMILES CC(C)C[C@H](NC(=O)[C@H](CO)NC(=O)[C@H](Cc1c[nH]c2ccccc12)NC(=O)[C@H](Cc1c[nH]cn1)NC(=O)[C@@H]1CCC(=O)N1)C(=O)N[C@H](C)C(=O)N[C@@H](Cc1c[nH]c2ccccc12)C(=O)N[C@@H](Cc1ccc(O)cc1)C(=O)N1CCC[C@H]1C(=O)NCC(N)=O) [[Leu^5, D-Ala^6]GnRH-2]", "QUALITATIVE LABEL": "rule not met"}
{"BINDER": "[pGlu]HWSHGWYPG-NH2 (also: I-125 radiolabelled form used as tracer, Purchased from Sigma Co; also called gonadotropin-releasing hormone-2; cGnRH-II) [GnRH-2]", "QUALITATIVE LABEL": "rule met"}
